# Test system: MLK1;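 further: KINOMEscan kinase panel screen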
# Construct: gene MAP3K9
# studyConditions: concentration: 1 μM, replicates: in singlicate; n = 1
Catalogue of %Inh values
Only the number, expressed in %, is required.

Some solved entries appear below for comparison.
compound | %Inh / %
COc1ccc(-c2nc3n(c2-c2ccncc2)CCC3)cc1 | 0
CCc1nc(-c2cccc(C)c2)c(-c2ccnc(NC(=O)c3ccccc3)c2)s1 | 0
CCC(CC)(CC)n1cnc2c(N)ncnc21 | 0
Cc1cc(N2CCC(NS(=O)(=O)c3ccc(F)cc3)CC2)nc(Nc2cccc(C#N)c2)n1.O=C(O)C(F)(F)F | 12
O=C(Nc1ccccc1)Nc1ccc(Oc2ccc3nccn3n2)cc1 | 15

Which value of %Inh has been reported for Cl.c1ccc(Cn2ncc3cc(Nc4ncnc5ccccc45)ccc32)cc1 in the records? 0

Report %Inh for COc1ccc(Nc2nccc(N3CCC(NC(=O)Nc4ccc5c(c4)OCO5)C3)n2)cc1 (stereo not drawn) please. 6

Quick one: %Inh for COc1ccc(Nc2nccc(N3CCC(NC(=O)c4cccc(NC(C)=O)c4)C3)n2)cc1 (stereo not drawn) ? 0

Which measured %Inh value corresponds to Cl.c1ccc(Cn2ccc3cc(Nc4ncnc5ccccc45)ccc32)cc1 ? 0
